test system: Leishmania donovani; assay: Antileishmanial activity against Leishmania donovani infected in mouse peritoneal macrophages after 96 hrs; assay type: functional, organism-based
Decide using IC50 alone. Strictly below 1 µg/mL: rule met. Equal to or above 1 µg/mL: rule not met.

Find out if reported IC50 for "COc1cc(O)cc2c1CN(Cc1ccccc1)C(C)(C)C2" is less than 1 µg/mL
rule met

In the record for "COc1ccc(I)c2c1CNC(C)(C)C2" , is IC50 less than 1 µg/mL?
rule met

Answer whether the compound "COc1ccc(-c2ccc(O)cc2CO)c2c1CNC(C)(C)C2" has IC50 strictly less than 1 µg/mL
rule not met

Below 1 µg/mL on IC50? Entry "COc1cc(OC)c(-c2ccc(O)c3ccccc23)c2c1CNC(C)(C)C2"
rule met

For "COc1cc2c(c(OC)c1)CNC(C)(C)C2" , is the recorded IC50 below the cut-off of 1 µg/mL?
rule not met

Is it true that IC50 reported for CCN(CC)CCCC(C)Nc1ccnc2cc(Cl)ccc12 (configuration not stated) [CHLOROQUINE] is less than 1 µg/mL?
rule met
